Entry source: PubChem BioAssay (NCI)

Test system: SF-539 CNS
Experiment: NCI-60 one-dose screen, 48 h (100 = growth as untreated, 0 = no growth, -100 = all killed)
Conditions: 10 µM unless noted
Compounds without any hit were thinned out: in the full panel of roughly 83,000, 20% have a hit. The source made the active and inactive calls. How the source made its calls: active means growth percent below 10; inactive means the rest.
reportedEndpoint: growth

>>> testresult("S=c1nc2[nH]c3ccccc3c2n[nH]1")
"85.1% (inactive)"

Please give growth for each item listed below.
1. CC1(c2ccccc2)CO1 (stereo not drawn)
2. COc1ccc(/C=C\C(=O)/C=C/c2ccc(OC)cc2)cc1
3. O=C1NC(=O)/C(=C\c2ccncc2)N1
4. O=Cc1c(O)c2ccccc2[nH]c1=O

### Response
1: 102% (inactive); 2: 62.8% (inactive); 3: 92.7% (inactive); 4: 97.9% (inactive)

Please give growth for each item listed below.
1. CC(=O)/C(C)=N\OC(=O)Nc1ccccc1
2. CCC12OC(COc3ccccc3)CN1CCN2c1ccccc1 (stereo not drawn)
3. NNc1ncnc2c1ncn2C1OC(CO)C(O)C1O (stereo not drawn)
4. CC(C)C(=O)OCCOc1ccc(C(C)(C)C)cc1
5. CCNc1ncnc2[nH]ncc12
6. CCOC(=O)/C(C)=C\c1ccc(OC)c(OC)c1
7. OCC1CCC(O)C(CO)N1 (stereo not drawn)

### Response
1. 95.3% (inactive)
2. 95.9% [100 µM] (inactive)
3. 90.9% (inactive)
4. 99.5% (inactive)
5. 96.2% (inactive)
6. 101% (inactive)
7. 87.9% (inactive)

Please give growth for each item listed below.
1. COC1OC(CO)C(OC)C(O)C1O (stereo not drawn)
2. CCN(CC)CCOC(=O)Nc1c(C(C)C)cccc1C(C)C

### Response
["99% (inactive)", "96.6% (inactive)"]

* * *

Tested on: SW-620 colon
Test: NCI-60 one-dose screen, 48 h (100 = growth as untreated, 0 = no growth, -100 = all killed)
Conditions: 10 µM unless noted
Protocol: Growth inhibition of the SW-620 human tumor cell line is measured as a screen for anti-cancer activity. Cells are grown in 96 well plates and exposed to the test compound for 48 hours. Compounds are tested at a single concentration, which is 10^-5 M for most compounds. The reported endpoint is percent growth (GI% or GIPRCNT), where numbers from 0 - 100% represent growth inhibition, and numbers from -100% - 0 represent cell death. For example, a value of 40 represents 60% growth inhibition. […]
The panel holds about 83,000 compounds, 20% with a hit somewhere; the sample as a whole holds those more often. Calls of active or inactive are those of the source. Rule for the calls: active = growth percent below 10; inactive = the rest.
What growth was measured for each of the following?

Please give growth for each item listed below.
1. COc1cccc(C(=O)NNC(=O)c2cccc3ccccc23)c1
2. CCCC1OC(c2ccco2)OCC1CC (centres undefined)

### Response
107% (inactive)
99.1% (inactive)

Please give growth for each item listed below.
1. Cc1ccc(/C=N/NC(N)=S)s1
2. CC(=O)c1cccs1

### Response
1: 107% (inactive); 2: 108% (inactive)

Please give growth for each item listed below.
1. CCN(CC)CCN1CNC(=S)NC1
2. CCOC(=O)C(C#N)=C1CCN(C)CC1
3. CC(C)c1ncc([N+](=O)[O-])n1C

### Response
107% (inactive)
97.2% (inactive)
98% (inactive)

Please give growth for each item listed below.
1. COC1OC(COC(C)=O)C(OC(C)=O)C(OC(C)=O)C1OC(C)=O (centres undefined)
2. Cc1ccc(NCN2C(=O)c3ccccc3C2=O)c(C)n1
3. c1ccc2[nH]c(Cc3nc4ccccc4[nH]3)nc2c1
4. CN(C)c1ccc2c(N(C)C)cc(N(C)C)nc2c1
5. O=C(O)C1CCCN1C(=O)OCc1ccccc1 (centres undefined)

### Response
1: 109% (inactive); 2: 108% (inactive); 3: 105% (inactive); 4: 51.6% (inactive); 5: 111% (inactive)

Please give growth for each item listed below.
1. Cc1cccnc1NC1OC(=O)c2ccccc21 (centres undefined)
2. C=CCNC(=S)N/C=C(/C(=O)c1ccccc1)c1ccccc1

### Response
["106% (inactive)", "98.9% (inactive)"]
